Where these numbers come from: PubChem BioAssay (NCI)

// TGI lookup, one value per entry
# System: SR leukemia
# method_notes: NCI tumour cell line growth inhibition, 48 h
Dear colleague, please return just the value in µM, with no unit written.

Consider the worked cases shown below.
In [3]: df
Out[3]:
                                   compound  measured_parameter  assay_result
0         CCCCCCN(CCCCCC)CCCNc1nccc2ccccc12                 TGI           4.6
1  Cc1ccc(/C=C(\C#N)n2nnc3cc(Cl)c(Cl)cc32)cc1                 TGI          40.6

Query TGI on SR leukemia for C=C1C(=O)OC2CCCCC3OC3C12 (stereo unspecified) 53.1
